measuredOn: FXR (Homo sapiens)
Sequence (Q96RI1 262-486 limits assumed): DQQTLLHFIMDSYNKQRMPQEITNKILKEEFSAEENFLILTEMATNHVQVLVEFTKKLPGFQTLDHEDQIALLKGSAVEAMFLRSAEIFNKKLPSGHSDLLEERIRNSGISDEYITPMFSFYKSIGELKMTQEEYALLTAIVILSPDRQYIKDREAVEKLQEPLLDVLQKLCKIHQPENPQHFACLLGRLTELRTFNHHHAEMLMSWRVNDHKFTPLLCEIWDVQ
assayName: FXR TR-FRET binding assay (DY246 fluorescent probe)
measurementConditions: at 164 nM; read-out: FXR TR-FRET Binding % Inh.
Kindly state inhibition at 0.164 µM for each of the entries shown.
Reply numerically in %, unit not repeated.

**Q:** # lookup: FXR (Homo sapiens) inhibition at 0.164 µM, key = Cc1ccc(-c2nn(-c3cccc(C(F)(F)F)c3)cc2C(=O)Nc2ccc(C)c(S(=O)(=O)N3CCOCC3)c2)cc1 [Compound 4d]
**A:** 77.5

**Q:** Under FXR (Homo sapiens): report inhibition at 0.164 µM of COc1cccc(Cn2cc(C(=O)Nc3ccc(C)c(S(=O)(=O)N4CCOCC4)c3)c(-c3ccc(C(F)(F)F)cc3)n2)c1 [Compound 4q] .
**A:** 109

**Q:** Provide measured inhibition at 0.164 µM on FXR (Homo sapiens) for Cc1ccc(-c2nn(-c3ccccc3)cc2C(=O)Nc2ccc(C)c(S(=O)(=O)N3CCOCC3)c2)cc1 [Compound Z26476908, reference compound] please.
**A:** 100

FYI, the data here is from patent US10611729B2.
